biological target: κ opioid receptor (Homo sapiens, UniProt P41145); assay: κ-opioid receptor [35S]GTPγS functional assay, U-2 OS cells; assay type: biochemical; parameters: expressed in transfected cells; host or cells: U-2 OS (in-house membranes); details: U-2 OS cells; read-out: GTPγS κ EC50
Sequence (P41145 whole entry): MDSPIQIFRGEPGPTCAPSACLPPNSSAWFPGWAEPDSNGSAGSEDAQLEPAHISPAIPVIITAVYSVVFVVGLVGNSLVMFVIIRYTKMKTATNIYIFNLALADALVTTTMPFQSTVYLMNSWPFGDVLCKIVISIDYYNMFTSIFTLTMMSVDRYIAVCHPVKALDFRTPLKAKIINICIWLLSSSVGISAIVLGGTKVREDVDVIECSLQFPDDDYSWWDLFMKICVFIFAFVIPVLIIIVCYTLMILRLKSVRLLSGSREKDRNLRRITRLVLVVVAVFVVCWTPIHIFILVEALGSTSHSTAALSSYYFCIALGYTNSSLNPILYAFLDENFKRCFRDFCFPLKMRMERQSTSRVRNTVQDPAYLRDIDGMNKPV
quantity-measured: EC50 (nM)
Hi! Could you send only the number? It should be in nM, unit omitted.

Below, each entry is followed by its recorded EC50 result.
>>> measurement("CN(C(=O)Nc1ccc(C(C)(C)C)cc1)[C@@H]1[C@H]2Cc3ccc(O)cc3[C@]1(C)CCN2CC1CC1 [Compound 133]")
21.7
>>> measurement("CN1CC[C@@]2(C)c3cc(O)ccc3C[C@@H]1[C@H]2NCCCNC(=O)OC(C)(C)C [Compound 111]")
42.6

**Query** Request the reported EC50 associated with C[C@]12CCN(CC3CC3)[C@H](Cc3ccc(O)cc31)[C@@H]2NS(=O)(=O)c1cccc(C(F)(F)F)c1 [Compound 129]
**Result** 0.78

**Query** Request the reported EC50 associated with CN(C(=O)c1ccsc1)[C@@H]1[C@H]2Cc3ccc(O)cc3[C@]1(C)CCN2CC1CC1 [Compound 114]
**Result** 18.9

**Query** Request the reported EC50 associated with C[C@]12CCN(CC3CC3)[C@H](Cc3ccc(O)cc31)[C@@H]2NCCc1ccc(S(N)(=O)=O)cc1 [Compound 96]
**Result** 6.41

**Query** Request the reported EC50 associated with COc1ccc(CCN[C@H]2[C@H]3Cc4ccc(O)cc4[C@]2(C)CCN3C)cc1 [Compound 100]
**Result** 1760

Value source: patent US10138207B2
